Assay: in vitro; also: test concentration or dose not given here
Conditions: mouse, microsomes
Readings of metabolised for the listed compounds

These solved cases illustrate the format of a correct answer.
# input compound: `O=C(O)c1ccc2c(c1)CCCC(c1ccccc1Cl)=C2c1ccc(O[C@H]2CCN(CCCF)C2)cc1` ; wanted: its metabolised
5%

Using the record for `O=C(O)c1ccc2c(c1)CCCC(c1cccc(F)c1Cl)=C2c1ccc(O[C@H]2CCN(CCCF)C2)cc1` , report its metabolised.
0%

Others:
# input compound: `O=C(O)c1ccc2c(c1)CCCC(c1ccc(OC(F)(F)F)cc1)=C2c1ccc(O[C@H]2CCN(CCCF)C2)cc1` ; wanted: its metabolised
10%
